- System: KM12
- Assay text: NCI tumour cell line growth inhibition, 48 h
Active and inactive are the calls of the source. No stated cut-off is given here; in the data, active = GI50 up to about 1.1 µM and inactive = higher.
Hi there, I'd appreciate the recorded GI50 for every entry that follows.

Worked examples follow.
compound="CCOC(=O)/C(O)=C1\\C(=O)N(C)C(=O)C1c1ccc(OC)c(OC)c1 (configuration not stated)" observed="> 100 µM (inactive)"
compound=COc1ccc(OC)c2cc(Cc3ccc(N(C)C)cc3)c(=O)c(Cc3ccc(N(C)C)cc3)cc12 observed="> 100 µM (inactive)"
compound=CC(C)(C)c1ccc2c(c1)C#Cc1cc(C(C)(C)C)ccc1OCCCO2 observed="> 100 µM (inactive)"
compound=O=S(O)CCCCCSSCCCCSSCCCCCS(=O)O observed="> 100 µM (inactive)"
compound="COC(=O)c1cc(C)ccc1CC(Cc1ccc(C)cc1)C(=O)OC (configuration not stated)" observed="10.8 µM (inactive)"
compound="N#CC(/N=N/c1ccccc1C(=O)O)C(N)=O (configuration not stated)" observed="> 100 µM (inactive)"

Please report GI50 for every entry that follows.
1. CN1C(=O)C(c2c[nH]c3ccccc23)N(C)C(=O)C1c1c[nH]c2ccccc12 (configuration not stated)
2. Fc1ccccc1C1SCc2nc3ccccc3n21 (configuration not stated)
3. O=C(Nc1sccc1S(=O)(=O)c1ccccc1)c1ccccc1

Found:
> 100 µM (inactive)
89.9 µM (inactive)
> 100 µM (inactive)

###

- Test system: MOLT-4
- Assay text: NCI tumour cell line growth inhibition, 48 h
The source made the active and inactive calls. No stated cut-off is given here; in the data, active = GI50 up to about 1.1 µM and inactive = higher.
Hi there, I'd appreciate the recorded GI50 for every entry that follows.

Worked examples follow.
compound="CC(=O)OCC1OC(OCC2OC(N3C(=S)N[C@H]([C@@H](O)[C@H](O)[C@H](O)CO)[C@H]3O)C(OC(C)=O)C(OC(C)=O)C2OC(C)=O)C(OC(C)=O)C(OC(C)=O)C1OC(C)=O (some centres undefined)" observed="> 100 µM (inactive)"
compound=CCOC(=O)C#Cc1ccc([N+](=O)[O-])cc1 observed="1.73 µM (inactive)"
compound="COC(=O)C1C(=O)C=CN([C@H](C)c2ccccc2)[C@@H]1Cc1ccc(OC)c(OCc2ccccc2)c1I (some centres undefined)" observed="8.79 µM (inactive)"
compound="CC1=CC(C2/C(=N/O)C=C(C)CC2(C)C)C(O)C(C)(C)C1 (centres undefined)" observed="13.5 µM (inactive)"
compound="CC(=O)OC1(C#N)CC2OC1C1C2N1C(=O)OC(C)(C)C (centres undefined)" observed="> 100 µM (inactive)"
compound=CC1=C(C(=O)Nc2ccc(Cl)c(C(=O)OC(C)C)c2)SCCO1 observed="40.4 µM (inactive)"
compound=Nc1ccc(-c2nc3ccc(F)cc3s2)cc1I observed="12.4 µM (inactive)"
compound=CC(C)CCOC(=O)NC(Nc1ccc(F)cc1)(C(F)(F)F)C(F)(F)F observed="19.1 µM (inactive)"

For record O=C1/C(=C/c2ccc(O)cc2)Oc2ccccc21 the listed GI50 is 44.9 µM (inactive)

###

- System: M14
- Assay text: NCI tumour cell line growth inhibition, 48 h
Activity calls are given as the source filed them. No stated cut-off is given here; in the data, active = GI50 up to about 1.1 µM and inactive = higher.
Outcome field: choose from active, inactive

The following molecules have reported results that may help.
molecule=Nc1ncnc2sc(Nc3ccccc3)nc12 class_assignment=inactive
molecule=C/C(CC(=O)Nc1cccc(Cl)c1C)=N\NC(N)=S class_assignment=inactive
molecule=CC(=O)Oc1ccc2c(c1)[nH]c1c3ccc(OC(C)=O)cc3oc(=O)c21 class_assignment=inactive
molecule=CCN(CC)c1ccc2cc(C(=O)Nc3ccc(C)cc3)c(=N)oc2c1 class_assignment=inactive
molecule="COc1ccccc1/C=C1\\CCC(CCN2CCOCC2)C1=O (configuration not stated)" class_assignment=inactive

Lookup: Short answer needed: outcome of this test for CC1=CC=NN2C(=O)[C@H](C)C2C1 (some centres not stated) ?
Found: inactive

Lookup: Short answer needed: outcome of this test for C#Cc1cc(Br)c(OC(=O)C(C)(C)C)c(-c2cc(C#C)cc(Br)c2OC(=O)C(C)(C)C)c1 ?
Found: inactive

Lookup: Short answer needed: outcome of this test for O=[N+]([O-])/C(Cl)=C(/C(Cl)=C(Cl)Cl)N1CCOCC1 ?
Found: inactive

Lookup: Short answer needed: outcome of this test for Nc1ccc(-c2nc3ccc(F)cc3s2)cc1I ?
Found: inactive

Lookup: Short answer needed: outcome of this test for NS(=O)(=O)c1ccc(Nc2c3ccccc3nc3c(C(=O)NCCO)cccc23)cc1 ?
Found: active

Lookup: Short answer needed: outcome of this test for CC1(C)N/C(=C\C=O)C(C)(C)N1O ?
Found: inactive

Lookup: Short answer needed: outcome of this test for Cc1cc(OP2(=O)NCc3ncccc3O2)ccc1Cl (configuration not stated) ?
Found: inactive

Lookup: Short answer needed: outcome of this test for CC(=O)c1c2c(cc3c1CC1(Cc4cc5c(cc4C1)CCC5)C3)CCC2 ?
Found: inactive

Lookup: Short answer needed: outcome of this test for CC1C=C(NCC2(CO)CCC2)N=C(N)N1 (configuration not stated) ?
Found: inactive

Lookup: Short answer needed: outcome of this test for CC(C)CCn1nc(N)c2nc3ccccc3nc21 ?
Found: inactive

Lookup: Short answer needed: outcome of this test for CC(=O)OC[C@@]1(C)[C@@H]2[C@@H]3[C@@]4(CO[C@]3(C)C(=O)[C@@]3(O)C[C@H](C)[C@H](OC(C)=O)[C@@H]3[C@H]4OC(C)=O)[C@H](OC(=O)c3ccccc3)C[C@@H]21 ?
Found: inactive

Lookup: Short answer needed: outcome of this test for NCC(O)CNCC/C=C\C/C=C\C/C=C\C/C=C\C/C=C\C/C=C\CCCCC/C=C\CCNCC(O)CN (configuration not stated) ?
Found: inactive

###

- System: SN12C
- Assay text: NCI tumour cell line growth inhibition, 48 h
Calls of active or inactive are those of the source. Cut-off read from the data, not from the text of the source: active = GI50 up to about 1.1 µM and inactive = higher. Numbered stars: 1 amine (or outer) side, 2 acyl side, 3 side chain; on linkers, the order of the positions; unused ones are H or OH. Square brackets hold non-standard residues; d marks the D form. Peptide text beside a SMILES is read from it. X55 = CC[C@H](C)[C@H](OC(=O)[C@@H](C)[C@@H](CC)N[*:1])C(=O)[*:2]; X31 = C[C@H](N[*:1])C(=O)C(C)(C)C(=O)[*:2]; NMeY = CN[C@@H](Cc1ccc(O)cc1)C(=O)O; NMeL = CN[C@@H](CC(C)C)C(=O)O; NMeV = CN[C@H](C(=O)O)C(C)C
Outcome field: choose from yes (1) (active), no (0) (inactive)

The following molecules have reported results that may help.
molecule="COc1ccc(C2CCC(Cl)(OC)CC2C=O)cc1 (stereo unspecified)" class_assignment="no (0)"
molecule="CCOP12(OCC)NC(=O)OC1(C(F)(F)F)c1ccccc1O2 (stereo unspecified)" class_assignment="no (0)"
molecule="COC(=O)C1C(=O)C=CN([C@H](C)c2ccccc2)[C@@H]1Cc1ccc(OC)c(OCc2ccccc2)c1I (stereo partly specified)" class_assignment="no (0)"
molecule="CC[C@H](C)[C@@H]1OC(=O)[C@@H](C)[C@@H](CC)NC(=O)[C@H](C)NC(=O)C(C)(C)C(=O)[C@H](C)NC(=O)[C@H](Cc2ccc(OC)cc2)N(C)C(=O)[C@H](C(C)C)N(C)C(=O)CNC(=O)[C@H](CC(C)C)N(C)C(=O)CNC1=O [DOLASTATIN 11] (cyclo(A[X55]G[NMeL]G[NMeV][NMeY](Me)[X31]))" class_assignment="yes (1)"
molecule=CCOC(=O)/C(C#N)=C/Nc1c(C)n(C)n(-c2ccccc2)c1=O class_assignment="no (0)"

Now, please, on to the next molecule.
Lookup: Short answer needed: outcome of this test for C=C[C@H]1CN2CCc3c([nH]c4c([C@H]5CCCN5C)c(O)ccc34)[C@@H]2C[C@@H]1C[C@H]1c2[nH]c3ccccc3c2CCN1C [STRYCHNOPENTAMINE] ?
Found: no (0)

###

- Test system: SW-620
- Assay text: NCI tumour cell line growth inhibition, 48 h
Activity calls are given as the source filed them. Cut-off read from the data, not from the text of the source: active = GI50 up to about 1.1 µM and inactive = higher. Numbered stars: 1 amine (or outer) side, 2 acyl side, 3 side chain; on linkers, the order of the positions; unused ones are H or OH. Square brackets hold non-standard residues; d marks the D form. Peptide text beside a SMILES is read from it. X55 = CC[C@H](C)[C@H](OC(=O)[C@@H](C)[C@@H](CC)N[*:1])C(=O)[*:2]; X31 = C[C@H](N[*:1])C(=O)C(C)(C)C(=O)[*:2]; NMeY = CN[C@@H](Cc1ccc(O)cc1)C(=O)O; NMeL = CN[C@@H](CC(C)C)C(=O)O; NMeV = CN[C@H](C(=O)O)C(C)C
Outcome field: choose from active, inactive

The following compounds have reported results that may help.
compound=O=C1[C@@H]2C(c3ccc(Cl)cc3Cl)=NO[C@@H]2C(=O)N1c1ccc(Cc2ccc(N3C(=O)[C@H]4C(c5ccc(Cl)cc5Cl)=NO[C@H]4C3=O)cc2)cc1 study_system=SW-620 class_assignment=inactive
compound="CC[C@H](C)[C@@H]1OC(=O)[C@@H](C)[C@@H](CC)NC(=O)[C@H](C)NC(=O)C(C)(C)C(=O)[C@H](C)NC(=O)[C@H](Cc2ccc(OC)cc2)N(C)C(=O)[C@H](C(C)C)N(C)C(=O)CNC(=O)[C@H](CC(C)C)N(C)C(=O)CNC1=O [DOLASTATIN 11] (cyclo(A[X55]G[NMeL]G[NMeV][NMeY](Me)[X31]))" study_system=SW-620 class_assignment=active
compound="COc1cc2c(cc1OC)C(Cc1c3ccccc3cc3ccccc13)N(C)CC2 (stereo not drawn)" study_system=SW-620 class_assignment=inactive

Lookup: Short answer needed: outcome of this test for CC1=C2NCN(C)N=C2C(C#N)(C#N)C1(C#N)C#N ?
Found: inactive

Lookup: Short answer needed: outcome of this test for CCC1C(=O)C(O)[C@H]2[C@@H]3C(O)CC4=CC(=O)CC[C@]4(C)[C@H]3CC[C@]12C (stereo partly drawn) ?
Found: inactive

Lookup: Short answer needed: outcome of this test for C/N=C(\N)N/N=C(\C)c1ccc2oc3ccc(/C(C)=N/N/C(N)=N/C)cc3c2c1 ?
Found: inactive

Lookup: Short answer needed: outcome of this test for CC(SC(=O)Nc1ccc(/N=N/c2ccccc2)cc1)C(=O)O (stereo not drawn) ?
Found: inactive

Lookup: Short answer needed: outcome of this test for O=C(Nc1sccc1S(=O)(=O)c1ccccc1)c1ccccc1 ?
Found: inactive
